measuredOn: KRAS-G12D protein (Homo sapiens, UniProt P01116, G12D)
Sequence (P01116 1-188 isoform P01116-2 G12D): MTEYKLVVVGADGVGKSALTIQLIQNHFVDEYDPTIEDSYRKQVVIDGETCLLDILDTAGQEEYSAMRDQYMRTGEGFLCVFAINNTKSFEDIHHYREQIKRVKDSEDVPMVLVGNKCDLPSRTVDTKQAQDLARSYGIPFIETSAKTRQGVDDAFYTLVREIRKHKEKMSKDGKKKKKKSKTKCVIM
methodDescription: SOS-mediated nucleotide exchange assay (BODIPY-GDP / Tb-streptavidin TR-FRET)
Format: biochemical
*1 amine or outer side, *2 acyl side, *3 side chain or, on linkers, in order; H or OH if unused. Where a SMILES comes first, the peptide text is derived from it. Bridges are numbered along the chain shown (N, C = ends). [ ]: non-standard residue; d: D form. NMeNva(5-imidazol-1-yl) = CN[C@@H](CCCn1ccnc1)C(=O)O; Phe(4-guanidino) = N=C(N)Nc1ccc(C[C@H](N)C(=O)O)cc1; X82 = CS(=O)(=O)c1ncc(C[C@H](N[*:1])C(=O)[*:2])cn1; X51 = COc1cc(C[C@H](N[*:1])C(=O)[*:2])ncn1; X3 = CN([C@@H](Cc1cncnc1)C(=O)[*:2])[*:1]; X62 = O=C([C@@H]1CC[C@H](N[*:1])C1)[*:2]; Phe(2-CN) = N#Cc1ccccc1C[C@H](N)C(=O)O; 1Nal = N[C@@H](Cc1cccc2ccccc12)C(=O)O; Phe(2-F) = N[C@@H](Cc1ccccc1F)C(=O)O; X1 = O=C(C12CC(CN[*:1])(C1)C2)[*:2]; NMeCha = CN[C@@H](CC1CCCCC1)C(=O)O; NMeF = CN[C@@H](Cc1ccccc1)C(=O)O; PhLac = O=C(O)[C@@H](O)Cc1ccccc1; 3Pal = N[C@@H](Cc1cccnc1)C(=O)O; d(αMeC) = C[C@@](N)(CS)C(=O)O; Ahp(2) = CCCCC[C@H](N)C(=O)O; Cba = N[C@@H](CC1CCC1)C(=O)O; αMeC = C[C@](N)(CS)C(=O)O; NMeA = CN[C@@H](C)C(=O)O; Nle = CCCC[C@H](N)C(=O)O
Classify on EC50 using group A = under 30 nM, group B = from 30 nM up to 500 nM, group C = 500 nM and over

Consider the worked cases shown below.
compound: CCCC[C@@H]1NC(=O)[C@H](Cc2cc(OC)ncn2)NC(=O)[C@H](C)N(C)C(=O)[C@H](Cc2ccccc2)OC(=O)C23CC(CNC(=O)[C@H](Cc4ccccc4)N(C)C(=O)[C@H](CCCC)NC(=O)[C@H](Cc4ccccc4F)NC1=O)(C2)C3 [compound 306] (cyclo([NMeA][X51][Nle][Phe(2-F)][Nle][NMeF][X1][PhLac]))
classification: group C
//
compound: CCCC[C@@H]1NC(=O)[C@H](Cc2ccc(NC(=N)N)cc2)NC(=O)[C@H](CCCNC(=N)N)NC(=O)[C@H](Cc2cccc3ccccc23)NC(=O)CSC[C@H](C(=O)O)NC(=O)[C@H](Cc2ccccc2)N(C)C(=O)[C@H](CCCC)NC(=O)[C@H](Cc2ccc(O)cc2)NC1=O [compound 141] ({CH2CO}-[1Nal]R[Phe(4-guanidino)][Nle]Y[Nle][NMeF][dC]-OH; thioether N-8)
classification: group A
//
compound: COc1ccc(C[C@@H]2NC(=O)[C@H](CC3CCC3)NC(=O)[C@H](Cc3cccnc3)NC(=O)[C@H](CCCNC(=N)N)NC(=O)[C@H](Cc3ccccc3)NC(=O)CSC[C@](C)(C(N)=O)NC(=O)[C@@H]3CCCCCCC[C@H](NC2=O)C(=O)N3C)cc1 [SEQ ID NO: 192]
classification: group B
//
compound: CCCCC[C@@H]1NC(=O)[C@H](Cc2ccccc2C#N)NC(=O)[C@H](CC2CCC2)NC(=O)[C@H](Cc2cccnc2)NC(=O)[C@H](CCCNC(=N)N)NC(=O)[C@H](Cc2ccccc2)NC(=O)CSC[C@@](C)(C(N)=O)NC(=O)[C@H](Cc2ccccc2)N(C)C1=O [compound 375] ({CH2CO}-FR[3Pal][Cba][Phe(2-CN)][Ahp(2)][NMeF][αMeC]-NH2; thioether N-8)
classification: group B
//
compound: CCCC[C@@H]1NC(=O)[C@H](Cc2cccnc2)NC(=O)[C@H](C)N(C)C(=O)[C@H](Cc2ccccc2)OC(=O)C23CC(CNC(=O)[C@H](CC4CCCCC4)N(C)C(=O)[C@H](CCCC)NC(=O)[C@H](Cc4ccccc4F)NC1=O)(C2)C3 [compound 232] (cyclo([3Pal][Nle][Phe(2-F)][Nle][NMeCha][X1][PhLac][NMeA]))
classification: group C
//
compound: CCCC[C@@H]1NC(=O)[C@H](Cc2cccnc2)NC(=O)[C@H](CCCNC(=N)N)NC(=O)[C@H](Cc2ccccc2)NC(=O)[C@@H]2CC[C@@H](C2)NC(=O)[C@H](Cc2ccccc2)N(C)C(=O)[C@H](CCCC)NC(=O)[C@H](Cc2ccc(OC)cc2)NC1=O [compound 203] (cyclo(FR[3Pal][Nle]Y(Me)[Nle][NMeF][X62]))
classification: group B
//
compound: CCCC[C@@H]1NC(=O)[C@H](Cc2cccnc2)NC(=O)[C@H](C)N(C)C(=O)[C@H](Cc2ccccc2)OC(=O)C23CC(CNC(=O)[C@H](Cc4cncnc4)N(C)C(=O)[C@H](CCCC)NC(=O)[C@H](Cc4ccccc4F)NC1=O)(C2)C3 [compound 401] (cyclo([3Pal][Nle][Phe(2-F)][Nle][X3][X1][PhLac][NMeA]))
classification: group A
//
compound: CCCC[C@@H]1NC(=O)[C@H](Cc2ccc(NC(=N)N)cc2)NC(=O)[C@H](CCCNC(=N)N)NC(=O)[C@H](Cc2cccc3ccccc23)NC(=O)CSC[C@](C)(C(=O)O)NC(=O)[C@H](Cc2ccccc2)N(C)C(=O)[C@H](CCCC)NC(=O)[C@H](Cc2ccc(O)cc2)NC1=O [compound 143] ({CH2CO}-[1Nal]R[Phe(4-guanidino)][Nle]Y[Nle][NMeF][d(αMeC)]-OH; thioether N-8)
classification: group C

query: Given CCCC[C@@H]1NC(=O)[C@H](Cc2cnc(S(C)(=O)=O)nc2)NC(=O)[C@H](C)N(C)C(=O)[C@H](Cc2ccccc2)OC(=O)C23CC(CNC(=O)[C@H](Cc4ccccc4)N(C)C(=O)[C@H](CCCC)NC(=O)[C@H](Cc4ccccc4F)NC1=O)(C2)C3 [compound 313] (cyclo([NMeA][X82][Nle][Phe(2-F)][Nle][NMeF][X1][PhLac])) , name the class its EC50 places it in.
result: group A

query: Given CCCC[C@@H]1NC(=O)[C@H](Cc2cccnc2)NC(=O)[C@H](CCCn2ccnc2)N(C)C(=O)[C@H](Cc2ccccc2)OC(=O)C23CC(CNC(=O)[C@H](Cc4ccccc4)N(C)C(=O)[C@H](CCCC)NC(=O)[C@H](Cc4ccccc4F)NC1=O)(C2)C3 [compound 233] (cyclo([3Pal][Nle][Phe(2-F)][Nle][NMeF][X1][PhLac][NMeNva(5-imidazol-1-yl)])) , name the class its EC50 places it in.
result: group A

###

measuredOn: KRAS-G12D protein (Homo sapiens, UniProt P01116, G12D)
methodDescription: SOS-mediated nucleotide exchange assay (BODIPY-GDP / Tb-streptavidin TR-FRET)
Assay type: biochemical
*1 amine or outer side, *2 acyl side, *3 side chain or, on linkers, in order; H or OH if unused. Where a SMILES comes first, the peptide text is derived from it. [ ]: non-standard residue; d: D form. Ala(pyrimidin-5-yl) = N[C@@H](Cc1cncnc1)C(=O)O; NMePhe(3-Me) = CN[C@@H](Cc1cccc(C)c1)C(=O)O; X11 = CC(C)(F)CC[C@H](N[*:1])C(=O)[*:2]; X28 = O=C([C@H](Cc1ncccn1)N[*:1])[*:2]; Phe(2-F) = N[C@@H](Cc1ccccc1F)C(=O)O; X1 = O=C(C12CC(CN[*:1])(C1)C2)[*:2]; Ala(cPr) = N[C@@H](CC1CC1)C(=O)O; NMeF = CN[C@@H](Cc1ccccc1)C(=O)O; PhLac = O=C(O)[C@@H](O)Cc1ccccc1; hLeu = CC(C)CC[C@H](N)C(=O)O; NMeA = CN[C@@H](C)C(=O)O
pEC50 values by entry
Note on units: pEC50 is unitless, being -log10 of a concentration expressed in mol/L.

Worked cases, pEC50 given:
compound: CCCCC[C@@H]1NC(=O)[C@H](Cc2ccc(OC)cc2)NC(=O)[C@H](CC2CCC2)NC(=O)[C@H](Cc2ccc(-c3cccnc3N)cc2)NC(=O)[C@H](CCCNC(=N)N)NC(=O)[C@H](Cc2ccccc2)NC(=O)CSC[C@@](C)(C(N)=O)NC(=O)[C@H](Cc2ccccc2)N(C)C1=O
pEC50: 8.04

compound: Cc1cccc(C[C@H]2C(=O)NCC34CC(C3)(C4)C(=O)O[C@@H](Cc3ccccc3)C(=O)N(C)[C@@H](C)C(=O)N[C@@H](Cc3cncnc3)C(=O)N[C@@H](CC3CC3)C(=O)N[C@@H](Cc3ccccc3F)C(=O)N[C@@H](CCC(C)(C)F)C(=O)N2C)c1 [compound 274] (cyclo([Ala(cPr)][Phe(2-F)][X11][NMePhe(3-Me)][X1][PhLac][NMeA][Ala(pyrimidin-5-yl)]))
pEC50: 9.00

Now look at this one.
query: Item under review: CC(C)CC[C@@H]1NC(=O)[C@H](Cc2ccccc2F)NC(=O)[C@H](CC2CC2)NC(=O)[C@H](Cc2ncccn2)NC(=O)[C@H](C)N(C)C(=O)[C@H](Cc2ccccc2)OC(=O)C23CC(CNC(=O)[C@H](Cc4ccccc4)N(C)C1=O)(C2)C3 [compound 281] (cyclo([Ala(cPr)][Phe(2-F)][hLeu][NMeF][X1][PhLac][NMeA][X28])) . Reported pEC50?
result: 5.92
